- MEASUREMENT PROTOCOL: Toxicity liver stage against HepG2, at 10uM
- Assay type: cell-based
- Design: test concentration 10 uM, cell line HepG2-A16-CD81EGFP
- PROTOCOL CONDITIONS: human, HepG2-A16-CD81EGFP cells; read-out: INHIBITION
Here the recorded cytotoxicity at 10 µM is given for each entry.

{"MOLECULE": "NC(=O)CC1CCCCN1C(=O)c1ccc2cc[nH]c2c1 (centres undefined)", "UNIT ANNOTATION": "%", "cytotoxicity at 10 µM": -4.02}
{"MOLECULE": "O=C(c1ccncc1F)N1CCN(CC2CC2)c2ncccc2C1", "UNIT ANNOTATION": "%", "cytotoxicity at 10 µM": 6.48}
{"MOLECULE": "COCCSCC(=O)NCc1ccnc(N(C)C)c1", "UNIT ANNOTATION": "%", "cytotoxicity at 10 µM": 9.88}
{"MOLECULE": "CS(=O)(=O)N1CCCCC1CCc1ccc(O)cc1 (centres undefined)", "UNIT ANNOTATION": "%", "cytotoxicity at 10 µM": -0.311}
{"MOLECULE": "CCc1nc(C)ncc1C(=O)N1CCOC(c2nc(C)n[nH]2)C1 (centres undefined)", "UNIT ANNOTATION": "%", "cytotoxicity at 10 µM": -7.88}
{"MOLECULE": "Cn1ncc2c(NCCOCc3ccccc3)nc(C3CCCC3)nc21", "UNIT ANNOTATION": "%", "cytotoxicity at 10 µM": 9.67}
{"MOLECULE": "Cc1cc(C)c2c(c1)C(NCc1c(C)nn(C)c1N(C)C)CCO2 (centres undefined)", "UNIT ANNOTATION": "%", "cytotoxicity at 10 µM": -4.07}
{"MOLECULE": "CC(C)NC(=O)[C@H](C)NC(=O)N1CCN(c2ccc(Cl)cc2)CC1", "UNIT ANNOTATION": "%", "cytotoxicity at 10 µM": 0.592}
{"MOLECULE": "Cc1ccc(CN2CC[C@H]3CO[C@H](CN(C)C)[C@H]3C2)o1", "UNIT ANNOTATION": "%", "cytotoxicity at 10 µM": -114}
{"MOLECULE": "CN1CCC(c2nnc(CN3CCOCC3)n2C)CC1", "UNIT ANNOTATION": "%", "cytotoxicity at 10 µM": -1.16}
{"MOLECULE": "CN(Cc1nnc(C2CC2)n1C)C1CCN(CCc2cnn(C)c2)C1 (centres undefined)", "UNIT ANNOTATION": "%", "cytotoxicity at 10 µM": -4.02}
{"MOLECULE": "Cc1nc(CC(=O)NS(=O)(=O)c2cccc3cnccc23)cs1", "UNIT ANNOTATION": "%", "cytotoxicity at 10 µM": 5.75}
{"MOLECULE": "Cn1cc(CN2CCCC3(COCCN(Cc4c[nH]nn4)C3)C2)cn1 (centres undefined)", "UNIT ANNOTATION": "%", "cytotoxicity at 10 µM": -0.501}
{"MOLECULE": "Cc1cc(C(=O)N2CCN(Cn3cc(Cl)cn3)CC2)on1", "UNIT ANNOTATION": "%", "cytotoxicity at 10 µM": -6.81}
{"MOLECULE": "CC(C)Cc1ncc2c(n1)CN(c1cc(NCCO)nc(N)n1)C2", "UNIT ANNOTATION": "%", "cytotoxicity at 10 µM": -2.68}
{"MOLECULE": "CNC(=O)c1csc(-c2cccnc2)n1", "UNIT ANNOTATION": "%", "cytotoxicity at 10 µM": 3.19}
{"MOLECULE": "O=C(NC1CCCc2nc(N3CCCCC3)ncc21)C1CCCC1 (centres undefined)", "UNIT ANNOTATION": "%", "cytotoxicity at 10 µM": -2.05}
{"MOLECULE": "CSC(C)C(=O)N1CCN(CC(C)(C)O)CC1 (centres undefined)", "UNIT ANNOTATION": "%", "cytotoxicity at 10 µM": -10.2}
{"MOLECULE": "O=C([C@@H]1CCCO1)N1CCC(Cn2cc(-c3ccsc3)nn2)CC1", "UNIT ANNOTATION": "%", "cytotoxicity at 10 µM": 3.43}
{"MOLECULE": "CN(C)C(C(=O)NCC1(C)COC1)c1cccc(F)c1 (centres undefined)", "UNIT ANNOTATION": "%", "cytotoxicity at 10 µM": -6.41}
{"MOLECULE": "CC=C(C)C(=O)NS(=O)(=O)c1ccc(C(F)(F)F)cc1", "UNIT ANNOTATION": "%", "cytotoxicity at 10 µM": 3.12}
{"MOLECULE": "CCNC(=O)[C@@H]1C[C@@H](NC(=O)c2ccc(C)cc2O)CN1CCCSC", "UNIT ANNOTATION": "%", "cytotoxicity at 10 µM": -125}
{"MOLECULE": "COc1ccc(C2CCCN2Cc2nnnn2C2CC2)cc1OC (centres undefined)", "UNIT ANNOTATION": "%", "cytotoxicity at 10 µM": 2.49}
{"MOLECULE": "CCNc1cc2c(nn1)CCN(C(=O)c1ccc3c(c1)OCO3)C2", "UNIT ANNOTATION": "%", "cytotoxicity at 10 µM": -13.5}
